protocol.description: Selectivity ratio of IC50 for HEK293 cells to IC50 for human A549 cells
Type: toxicity
condition.set: HEK293 cells versus A549 cells, read-out: Ratio IC50
value.type: selectivity ratio

>>> test_value("COc1cc(CC(=O)N2CC(=O)N[C@@H](Cc3ccccc3)C(=O)N(CC(N)=O)C(=O)CCSCc3ccc(cc3)C(=O)N[C@@H](CCCCN)CN(C(=O)CCC3CCCCC3)CC(=O)N[C@@H](Cc3ccccc3)CN(C(=O)CCc3ccccc3)CC(=O)N[C@@H](Cc3ccccc3)C2)cc(OC)c1")
8

---

protocol.description: Oral bioavailability in human
Format: ADME, organism-based
condition.set: in vivo
value.type: bioavailability

>>> test_value("NC(=O)N1c2ccccc2C=Cc2ccccc21 [CARBAMAZEPINE]")
"> 90%"
